These data points were gathered from ChEMBL document CHEMBL1128333.

# Species on record: Rattus norvegicus
# test description: DOPAC (3,4-dihydroxyphenylacetic acid) content of rat striatum reflecting DA metabolism and turnover
# Type: functional
# Parameters: concentration or dose not given beside the values
Catalogue of Control values
State just the number; it will be interpreted in %.

Answered cases to consult:
// query Reported Control for CCCN(CCC)[C@@H]1CCc2cccc(C(=O)NC(C)C)c2[C@@H]1C : what is it?
// result 74

// query Reported Control for CCCN(C(C)C)[C@H]1CCc2cccc(O)c2[C@H]1C : what is it?
// result 86

// query Reported Control for CCCN(CCC)[C@@H]1CCc2cccc(-c3ccco3)c2[C@@H]1C : what is it?
// result 116

// query Reported Control for CCCN(CCC)[C@H]1CCc2cccc(C(C)=O)c2[C@H]1C : what is it?
// result 130

// query Reported Control for CCCN(CCC)[C@@H]1CCc2cccc(C(=O)OC)c2[C@@H]1C : what is it?
// result 167

Pending molecule:
// query Reported Control for CCCN(C(C)C)[C@H]1CCc2cccc(OC)c2[C@H]1C : what is it?
// result 96

----------
# Species on record: Rattus norvegicus
# test description: DA (dopamine) content of rat striatum reflecting DA metabolism and turnover
# Assay type: functional
Catalogue of Control values
State just the number; it will be interpreted in %.

// query Reported Control for CCCN(C(C)C)[C@H]1CCc2cccc(O)c2[C@H]1C : what is it?
// result 110

// query Reported Control for CCCN(CCC)[C@@H]1CCc2ccccc2[C@@H]1C : what is it?
// result 95

// query Reported Control for CCCN(CCC)[C@H]1CCc2cccc(C(=O)c3ccccc3)c2[C@H]1C : what is it?
// result 102

// query Reported Control for CCCN(CCC)[C@H]1CCc2cccc(O)c2[C@H]1C : what is it?
// result 107

Continuing:
// query Reported Control for CCCN(CCC)[C@@H]1CCc2cccc(OC)c2[C@@H]1C : what is it?
// result 89

// query Reported Control for CCCN(CCC)[C@H]1CCc2cccc(C(C)=O)c2[C@H]1C : what is it?
// result 95

// query Reported Control for CCCN(CCC)[C@H]1CCc2cccc(OC)c2[C@H]1C : what is it?
// result 118

// query Reported Control for CCCN(CCC)[C@@H]1CCc2cccc(C(=O)NC(C)C)c2[C@@H]1C : what is it?
// result 99

// query Reported Control for CCCN(CCC)[C@H]1CCc2cccc(OS(=O)(=O)C(F)(F)F)c2[C@H]1C : what is it?
// result 107

// query Reported Control for CCCN(CCC)[C@@H]1CCc2cccc(C(=O)c3ccccc3)c2[C@@H]1C : what is it?
// result 105

// query Reported Control for CCCN(CCC)[C@@H]1CCc2cccc(C(=O)OC)c2[C@@H]1C : what is it?
// result 112

// query Reported Control for CCCN(CCC)[C@@H]1CCc2cccc(OS(=O)(=O)C(F)(F)F)c2[C@@H]1C : what is it?
// result 108

// query Reported Control for CCCN(C(C)C)[C@H]1CCc2cccc(OC)c2[C@H]1C : what is it?
// result 103

// query Reported Control for CCCN(CCC)[C@H]1CCc2cccc(C(=O)NC(C)C)c2[C@H]1C : what is it?
// result 82

// query Reported Control for CCCN(CCC)[C@@H]1CCc2cccc(O)c2[C@@H]1C : what is it?
// result 83

// query Reported Control for CCCN(C(C)C)[C@@H]1CCc2cccc(O)c2[C@@H]1C : what is it?
// result 74

----------
# target system: 5-hydroxytryptamine receptor 1A (Rattus norvegicus, UniProt P19327)
# Sequence (P19327 whole entry): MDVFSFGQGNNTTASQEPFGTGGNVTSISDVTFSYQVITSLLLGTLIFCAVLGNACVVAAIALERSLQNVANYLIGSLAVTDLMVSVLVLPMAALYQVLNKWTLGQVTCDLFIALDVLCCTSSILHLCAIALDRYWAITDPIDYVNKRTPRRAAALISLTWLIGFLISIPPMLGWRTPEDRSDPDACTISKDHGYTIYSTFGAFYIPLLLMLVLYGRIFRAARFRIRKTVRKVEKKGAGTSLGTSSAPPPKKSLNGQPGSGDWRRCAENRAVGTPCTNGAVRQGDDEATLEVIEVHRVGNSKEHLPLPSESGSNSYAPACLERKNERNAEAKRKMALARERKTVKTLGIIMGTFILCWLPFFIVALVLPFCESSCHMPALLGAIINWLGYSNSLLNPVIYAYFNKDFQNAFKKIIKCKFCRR
pKi: −log10 of the molar value.
Give satisfied when the value for pKi is at least 7. Give not satisfied when it is less.

A selection of reference data follows.
// query Quick check, pKi >= 7? CCCN(CCC)[C@@H]1CCc2cccc(OC)c2[C@@H]1C
// result satisfied

// query Quick check, pKi >= 7? CCCN(CCC)[C@@H]1CCc2cccc(OS(=O)(=O)C(F)(F)F)c2[C@@H]1C
// result satisfied

// query Quick check, pKi >= 7? CCCN(CCC)[C@H]1CCc2cccc(OC)c2[C@H]1C
// result not satisfied

Continuing:
// query Quick check, pKi >= 7? CCCN(CCC)[C@H]1CCc2ccccc2[C@H]1C
// result not satisfied

// query Quick check, pKi >= 7? CCCN(CCC)[C@H]1CCc2cccc(OS(=O)(=O)C(F)(F)F)c2[C@H]1C
// result not satisfied

// query Quick check, pKi >= 7? CCCN(CCC)[C@@H]1CCc2cccc(C(C)=O)c2[C@@H]1C
// result satisfied

// query Quick check, pKi >= 7? CCCN(CCC)[C@@H]1CCc2cccc(C(=O)c3ccccc3)c2[C@@H]1C
// result satisfied

----------
# Organism: Rattus norvegicus
# test description: DOPAC (3,4-dihydroxyphenylacetic acid) content of rat striatum reflecting DA metabolism and turnover
# Format: functional
# Parameters: concentration or dose not given beside the values
property measured: Control (%)
State just the number; it will be interpreted in %.

Answered cases to consult:
// query Reported Control for CCCN(C(C)C)[C@@H]1CCc2cccc(OC)c2[C@@H]1C : what is it?
// result 102

// query Reported Control for CCCN(CCC)[C@@H]1CCc2cccc(C(=O)c3ccccc3)c2[C@@H]1C : what is it?
// result 117

// query Reported Control for CCCN(CCC)[C@@H]1CCc2cccc(O)c2C1 : what is it?
// result 109

// query Reported Control for CCCN(CCC)[C@H]1CCc2cccc(C(=O)NC(C)C)c2[C@H]1C : what is it?
// result 59

Pending compound:
// query Reported Control for CCCN(CCC)[C@@H]1CCc2cccc(OC)c2[C@@H]1C : what is it?
// result 134

----------
# Species: Rattus norvegicus
# test description: DA (dopamine) content of rat striatum reflecting DA metabolism and turnover
# Assay type: functional
property measured: Control (%)
State just the number; it will be interpreted in %.

Answered cases to consult:
// query Reported Control for CCCN(CCC)[C@@H]1CCc2cccc(C(C)=O)c2[C@@H]1C : what is it?
// result 95

// query Reported Control for CCCN(CCC)[C@H]1CCc2ccccc2[C@H]1C : what is it?
// result 113

// query Reported Control for CCCN(CCC)[C@@H]1CCc2cccc(-c3ccco3)c2[C@@H]1C : what is it?
// result 91

// query Reported Control for CCCN(C(C)C)[C@@H]1CCc2cccc(OC)c2[C@@H]1C : what is it?
// result 99

// query Reported Control for CCCN(CCC)[C@@H]1CCc2cccc(O)c2C1 : what is it?
// result 108

// query Reported Control for CCCN(CCC)[C@H]1CCc2cccc(-c3ccco3)c2[C@H]1C : what is it?
// result 103

Pending molecule:
// query Reported Control for CCCN(CCC)[C@H]1CCc2cccc(C(=O)OC)c2[C@H]1C : what is it?
// result 96

----------
# Organism: Rattus norvegicus
# test description: DOPAC (3,4-dihydroxyphenylacetic acid) content of rat striatum reflecting DA metabolism and turnover
# Assay type: functional
# Design: concentration or dose not given beside the values
property measured: Control (%)
State just the number; it will be interpreted in %.

Answered cases to consult:
// query Reported Control for CCCN(C(C)C)[C@@H]1CCc2cccc(O)c2[C@@H]1C : what is it?
// result 116

// query Reported Control for CCCN(CCC)[C@H]1CCc2cccc(C(=O)c3ccccc3)c2[C@H]1C : what is it?
// result 112

// query Reported Control for CCCN(CCC)[C@H]1CCc2ccccc2[C@H]1C : what is it?
// result 92

// query Reported Control for CCCN(CCC)[C@H]1CCc2cccc(OS(=O)(=O)C(F)(F)F)c2[C@H]1C : what is it?
// result 107

// query Reported Control for CCCN(CCC)[C@@H]1CCc2cccc(OS(=O)(=O)C(F)(F)F)c2[C@@H]1C : what is it?
// result 105

Continuing:
// query Reported Control for CCCN(CCC)[C@H]1CCc2cccc(C(=O)OC)c2[C@H]1C : what is it?
// result 97

// query Reported Control for CCCN(CCC)[C@H]1CCc2cccc(OC)c2[C@H]1C : what is it?
// result 80

// query Reported Control for CCCN(CCC)[C@H]1CCc2cccc(O)c2[C@H]1C : what is it?
// result 118

// query Reported Control for CCCN(CCC)[C@@H]1CCc2ccccc2[C@@H]1C : what is it?
// result 152

// query Reported Control for CCCN(CCC)[C@@H]1CCc2cccc(C(C)=O)c2[C@@H]1C : what is it?
// result 192

// query Reported Control for CCCN(CCC)[C@H]1CCc2cccc(-c3ccco3)c2[C@H]1C : what is it?
// result 102

// query Reported Control for CCCN(CCC)[C@@H]1CCc2cccc(O)c2[C@@H]1C : what is it?
// result 225
